Values compiled from patent US10081635B2.

assayed.system: Human JAK3 (Homo sapiens (Human), UniProt P52333)
Sequence (P52333 whole entry): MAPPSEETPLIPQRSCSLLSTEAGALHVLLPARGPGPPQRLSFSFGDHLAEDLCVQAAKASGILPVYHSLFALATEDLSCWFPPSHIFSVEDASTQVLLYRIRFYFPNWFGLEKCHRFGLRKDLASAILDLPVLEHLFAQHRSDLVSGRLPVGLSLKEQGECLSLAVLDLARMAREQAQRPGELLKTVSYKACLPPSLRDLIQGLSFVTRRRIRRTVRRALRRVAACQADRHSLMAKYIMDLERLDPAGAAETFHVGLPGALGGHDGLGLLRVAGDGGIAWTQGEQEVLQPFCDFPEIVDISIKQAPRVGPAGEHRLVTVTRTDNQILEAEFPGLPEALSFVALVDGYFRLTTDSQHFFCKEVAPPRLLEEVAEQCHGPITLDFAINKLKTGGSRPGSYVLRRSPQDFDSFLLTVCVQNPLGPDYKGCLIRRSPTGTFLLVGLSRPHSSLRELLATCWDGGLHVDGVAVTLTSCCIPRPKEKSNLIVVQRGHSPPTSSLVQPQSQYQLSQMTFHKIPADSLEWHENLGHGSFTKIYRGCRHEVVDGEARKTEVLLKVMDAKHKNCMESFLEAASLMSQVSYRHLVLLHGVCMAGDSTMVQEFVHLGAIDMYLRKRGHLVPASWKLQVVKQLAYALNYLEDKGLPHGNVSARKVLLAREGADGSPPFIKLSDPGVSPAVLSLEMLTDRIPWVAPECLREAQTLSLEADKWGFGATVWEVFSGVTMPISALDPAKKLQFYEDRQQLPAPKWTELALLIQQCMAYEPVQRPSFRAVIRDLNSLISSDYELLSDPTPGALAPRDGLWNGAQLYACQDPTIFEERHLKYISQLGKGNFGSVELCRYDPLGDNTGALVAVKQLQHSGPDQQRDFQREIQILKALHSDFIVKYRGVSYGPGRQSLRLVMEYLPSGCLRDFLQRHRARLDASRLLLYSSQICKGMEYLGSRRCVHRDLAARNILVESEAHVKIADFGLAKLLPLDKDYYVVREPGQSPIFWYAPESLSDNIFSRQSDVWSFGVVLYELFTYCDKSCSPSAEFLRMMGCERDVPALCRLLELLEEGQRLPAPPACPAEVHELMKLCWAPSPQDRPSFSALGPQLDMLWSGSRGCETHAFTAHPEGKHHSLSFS
test.protocol: In vitro kinase inhibition test, JAK3 (33P-ATP filter scintillation)
Format: biochemical
reported.conditions: compound at 1 uM; read-out: JAK3 kinase-phosphorylation inhibitory level (% inhibition)
property: inhibition at 1 µM (%)

molecule	inhibition at 1 µM [%]
CN(c1ncnc2[nH]ccc12)[C@H]1CN(C(=O)Nc2ccc(F)cc2)CC12CC2	48
CN(c1ncnc2[nH]ccc12)C1CN(C(=O)Cn2ccnc2)CC12CC2 (stereo not drawn)	20
CN(c1ncnc2[nH]ccc12)[C@H]1CN(S(=O)(=O)N2CCOCC2)CC12CC2	49
CCS(=O)(=O)N1CC(N(C)c2ncnc3[nH]ccc23)C2(CC2)C1 (racemic)	59

P. CN(c1ncnc2[nH]ccc12)C1CN(S(=O)(=O)CCN)CC12CC2 (stereo not drawn)
Q. COc1ccc(S(=O)(=O)N2C[C@H](N(C)c3ncnc4[nH]ccc34)C3(CC3)C2)cc1
When their inhibition at 1 µM values are compared, which is larger, P or Q ? Pick one and reply with its label.
Q
